Reported IC50 values follow for various compounds
- System: Trypanosoma cruzi
- procedureSummary: GSK_TCAKS: pIC50 Trypanosoma cruzi Imaging: Amastigotes/Cell. […] Cells were then washed once with PBS before infection. T. cruzi trypomastigotes, collected at days 5 to 8 after infection from LLC-MK2 parasite infected cultures, were allowed to swim out for 4h at 37C from a centrifuged pellet (2,500 rpm/10 min/room temperature). Trypomastigotes were then collected and counted in a CASY Cell Counter. Trypomastigotes, in supplemented DMEM, were added to H9c2 cultures in a multiplicity of infection of 1 and incubated for 18 h. Cells were washed once with PBS before incubation of the infected H9c2 monolayer with trypsin (Life-Technologies) to detach cells from the flask. Cells were counted in a CASY Cell Counter using a 150 um capillary and their density set at 5 * 10^4 cells per mL in supplemented assay DMEM. Infected H9c2 were dispensed into 384-well poly-lysine coated assay plates at 50uL per well using a Multidrop Combi dispenser. After seeding them, the plates were incubated at 37C, 5% CO2 for 72h. Cultures were then fixed and stained by addition of 50 uL of a solution containing 8% formaldehyde and 4 uM DRAQ5 DNA dye (BioStatus, UK) per well. […] Five images were collected per well for reliable statistical analysis. Automated image analysis was performed with a script developed on Acapella High Content Imaging and Analysis Software (PerkinElmer). Output: number of amastigotes per cell as infection level measurement.
- Type: functional, organism-based, Rattus norvegicus
- conditionContext: H9c2, 4 h
Output spec: scalar in nM, unitless text.

Examples with answers:
INSERT INTO measurements (compound, reading) VALUES
  ('CCCCN(C(=O)c1ccc(NC(=O)C(C)C)cc1)c1ccccc1', 10000),
  ('Cc1c(Nc2cc(C3CC3)n[nH]2)ccc(C#N)c1Cl', 15800),
  ('O=C(c1cnn(-c2ccccc2)n1)N1CCCC(n2ccnc2)C1 (stereo not given)', 63.1),
  ('O=C(Nc1nc(-c2ccc(S(=O)(=O)N3CCOCC3)cc2)cs1)c1ccc([N+](=O)[O-])cc1', 501),
  ('CS(=O)(=O)c1ccc(Nc2nccc(Nc3n[nH]c4ccc(F)cc34)n2)c(F)c1', 3980);

[Q] Any idea what its IC50 is? The compound is COc1ccc(C(C)(C)C)cc1S(=O)(=O)n1ccnc1
[A] 200

[Q] Which IC50 reading was recorded for the compound Cc1[nH]nc(-c2nc3ccccc3[nH]2)c1C(=O)NC1CCCNC1 (stereo not given) ?
[A] 39.8

[Q] Name the reported IC50 value associated with the compound O=c1[nH]cnc2c([C@@H]3O[C@H](CO)[C@@H](O)[C@H]3O)n[nH]c12
[A] 316

[Q] Entry CN(Cc1nc2ccccc2s1)C(=O)C=Cc1cc2ccccc2o1 has what IC50?
[A] 1000

[Q] State the recorded IC50 for this entry: Cc1cc2nc(CN(C)Cc3ncccc3C)[nH]c2cc1C
[A] 501
